Hello, the source for this data is paper PMC9167512, in case you need it.

substrate: Cc1ccc(O)c(O)c1; assay: purified protein; type: biochemical, Tetranychus urticae; conditions: 0.1 M PBS pH 7.5, 25 °C, O2 co-substrate (air), Fe enzyme, kcat corrected for iron content
Can you tell me kcat/Km for the items I'm about to list?
Numbers only, in M⁻¹ s⁻¹.

Parameter requested: kcat/Km. Apply to each item below.
1. TuDOG16 (Tetranychus urticae) (protein, signal peptide removed, N-terminal 6xHis kept, pJExpress 411, E. coli BL21(DE3), codon optimized (ATUM), 25-37 kDa) HSERPGKFLEHDRSIVNCARYKREANQHTCVLAPFATEGPYFLADDLERSDITDGQTGVNLDLNLKLTNAKDCSPLSGYFVHIWNANALGHYSGVQEFNKFPKQTFRPKPIYDTRWLRGYQVTNEDGEVNFKTIVPGWYYGRCLHIHVEVYSKNTTDTNAITYIGQLYFKRELPVQLKLVEPYSSNQNELKFNEQDKVFNGMHGNDTITELVFEENNAKTSFILALDPTVTTLTNGTVVN
2. TuDOG1 (Tetranychus urticae) (protein, signal peptide removed, N-terminal 6xHis kept, pJExpress 411, E. coli BL21(DE3), codon optimized (ATUM), 25-37 kDa) DVHRRGKFLPHDRTVINCASLNRKAHQHSSVLAPFTTEGPFFLPDDLKRSDITDGQKGIPLELTIKLTNAKDCTPISNFFIHAWQTNATGVYSGIDEDTAPLSGFRPTPVNRDRSLRGYQETDANGEVKFLTILPGWYSGRAIHIHIEVYAKDITDENKITYIGQFYFEHDFPLKLRKIYPYSTNTQRIIFNEQDYYYVHDHGDETTLDLKHNGAKFSSYATVAIDPTVTVHVQ
3. TuDOG15 (Tetranychus urticae) (protein) DHERPGKYLEHDSTVINCARYKREANQHSCVLAPYAVEGPYFLPDDLERSNLAEDKVGVSLDLAIRLVNSNDCTPLTNMFVHVWHADALGVYSGVPDLAELFVERMRQENKTLPPFWGPEGAYEGRRPGGPGGPGGPGGPGGPGDMEMPGRPTPVNNERFLRGYQVTNEAGEVNFKTIIPGWYTGRSLHIHVEVYSKNTTEPGEVNYIGQIFFKDDLPAELKLIEPYSLNQNILVLNPQDGIYNFAHGEQTKIQLENRETGYFGSMTFGINPNAH

Result string:
367
2150
2230
